Origin of measurements: PubChem BioAssay AID1851

target: Cytochrome P450 2C19 (Homo sapiens); assay: Cytochrome panel assay with activity outcomes; details: recombinant CYP, pro-luciferin dealkylation, luminescence, p450-cyp2c19; series mostly up to 57.1 µM
Out of some 16,000 compounds screened, about 5,800 (36%) were called active. About 23% were inconclusive and are not listed. This is one part of the list.

compound	AC50
O=C(Nc1c(C(=O)N2CCCCC2)cnn1-c1ccccc1)c1ccco1	inactive
Cc1ccc(S(=O)(=O)NC(=O)c2cccn2C)cc1	inactive
COc1ccc(F)cc1S(=O)(=O)NC(Cc1ccccc1)C(N)=O (centres undefined)	7.08 µM (active)
Cc1noc(NS(=O)(=O)c2ccc(N/C=C/C(=O)c3ccc4c(c3)OCO4)cc2)c1C	inactive
COCCCN1C(=O)C(=O)/C(=C(/O)c2ccc(OC)cc2C)C1c1cccnc1 (centres undefined)	inactive
COc1cccc(/C(O)=C2/C(=O)C(=O)N(c3cc(C)on3)C2c2cccs2)c1 (centres undefined)	inactive
Cc1ccc(S(=O)(=O)N(CC(=O)N/N=C/c2ccc(F)cc2)c2cccc3cccnc23)cc1	1.12 µM (active)
Cc1nc2ccccn2c1/C(O)=C1\C(=O)C(=O)N(CCCn2ccnc2)C1c1ccncc1 (centres undefined)	inactive
O=C(O)c1ccccc1-c1ccccc1C(=O)Nc1ccccc1	inactive
CN(C)c1nc(-c2cccnc2)nc2ccccc12	inactive
CCOC(=O)c1sc(=S)n(-c2cccc(C(F)(F)F)c2)c1SC	1.26 µM (active)
CCN(CC)CCN1C(=O)C(=O)/C(=C(/O)c2ccc(OC)cc2)C1c1cccs1 (centres undefined)	14.1 µM (active)
Cc1noc(C)c1-c1ccc2ncnc(NCc3ccccc3)c2c1	7.94 µM (active)
CCCCNC(=O)C1C2C=CC3(CN(Cc4ccccc4Cl)C(=O)C13)O2 (centres undefined)	20 µM (active)
CCC(CC)C(=O)Nc1c2cnn(-c3ccccc3)c2nc(=O)n1-c1ccccc1	inactive
COCCCNC(=O)C1C2C=CC3(CN(Cc4ccc(C)cc4)C(=O)C13)O2 (centres undefined)	inactive
Cc1noc(C)c1-c1ccc2ncnc(NCCN3CCOCC3)c2c1	inactive
CN(C)CCn1c(C(=O)O)cc2ccccc21	inactive
CC/C=C\CC[C@H](OC(=O)c1ccc(Br)cc1)C1=CCCCC1=O	2 µM (active)
O=C(Nc1ccccc1)c1ccccc1CC[N+](=O)[O-]	17.8 µM (active)
O=C(Nc1nnc(SCc2ccc(Cl)cc2Cl)s1)C1COc2ccccc2O1 (centres undefined)	2.51 µM (active)
COc1ccc(Sc2ccc(NC(=O)c3ccccc3Cl)cc2C#N)cc1	2.82 µM (active)
COCCNc1ncnc2ccc(-c3c(C)noc3C)cc12	10 µM (active)
Cc1noc(C)c1-c1ccc2ncnc(NCc3cccs3)c2c1	1.26 µM (active)
COc1cccc(-c2nc(N(C)C)c3ccccc3n2)c1	20 µM (active)
CCOC(=O)NC(=O)CSc1nc2ccc(OCC)cc2[nH]1	14.1 µM (active)
COc1ccc(/C(O)=C2\C(=O)C(=O)N(c3cc(C)on3)C2c2ccc(OC)c(OC)c2)cc1OC (centres undefined)	inactive
Cc1cc2ccccc2n1CCNC(=O)C1CCCC1	1.26 µM (active)
Cc1ccc(/C(O)=C2/C(=O)C(=O)N(CCCn3ccnc3)C2c2ccccn2)cc1 (centres undefined)	2.82 µM (active)
O=C(COc1ccc(Cl)cc1)N(Cc1ccccc1)c1ccccn1	0.501 µM (active)
COc1ccc(-n2c(-c3ccccc3)nc(=S)c3c2CCCC3)cc1	inactive
O=C1CSC(c2ccccc2F)N1c1cc(Cl)ccc1O (centres undefined)	0.891 µM (active)
CN1CCN(c2ncc3nc(-c4cc(F)cc(F)c4)c(=O)n(CCC#N)c3n2)CC1	inactive
COc1cc(-c2ccc(N=Nc3ccc4c(S(=O)(=O)O)cc(S(=O)(=O)O)c(N)c4c3O)c(OC)c2)ccc1N=Nc1ccc2c(S(=O)(=O)O)cc(S(=O)(=O)O)c(N)c2c1O	3.98 µM (active)
Cc1ccc(CN2CC34C=CC(O3)C(C(=O)NCc3ccco3)C4C2=O)cc1 (centres undefined)	14.1 µM (active)
CCOc1ccc(/C(O)=C2/C(=O)C(=O)N(CCCn3ccnc3)C2c2cccs2)cc1Cl (centres undefined)	14.1 µM (active)
CCCCc1ccc2nc(NC(=O)OC)[nH]c2c1	inactive
COc1ccc2nc(SCC(=O)c3ccco3)[nH]c2c1	14.1 µM (active)
O=C(c1cnccn1)N1CCC2(CCCN(c3ncccn3)C2)CC1	inactive
Cc1sc(NC(=O)c2ccco2)c(C(c2cccnc2)N2CCCC2)c1C (centres undefined)	11.2 µM (active)
O=C(Nc1ccccc1)c1cc(-n2cnnc2)ccc1Cl	inactive
COc1cccc(-c2nc(N(C)Cc3ccco3)c3ccccc3n2)c1	20 µM (active)
C=CCNc1sc(C(=O)c2ccc(C)cc2)c(N)c1C#N	7.08 µM (active)
Cc1cccc(CNc2ncnc3ccc(-c4c(C)noc4C)cc23)c1	5.01 µM (active)

---

target: Cytochrome P450 2C19 (Homo sapiens) (UniProt P33261); experiment: Cytochrome panel assay with activity outcomes; details: recombinant CYP, pro-luciferin dealkylation, luminescence, p450-cyp2c19; series mostly up to 57.1 µM
Sequence (P33261 whole entry, looked up): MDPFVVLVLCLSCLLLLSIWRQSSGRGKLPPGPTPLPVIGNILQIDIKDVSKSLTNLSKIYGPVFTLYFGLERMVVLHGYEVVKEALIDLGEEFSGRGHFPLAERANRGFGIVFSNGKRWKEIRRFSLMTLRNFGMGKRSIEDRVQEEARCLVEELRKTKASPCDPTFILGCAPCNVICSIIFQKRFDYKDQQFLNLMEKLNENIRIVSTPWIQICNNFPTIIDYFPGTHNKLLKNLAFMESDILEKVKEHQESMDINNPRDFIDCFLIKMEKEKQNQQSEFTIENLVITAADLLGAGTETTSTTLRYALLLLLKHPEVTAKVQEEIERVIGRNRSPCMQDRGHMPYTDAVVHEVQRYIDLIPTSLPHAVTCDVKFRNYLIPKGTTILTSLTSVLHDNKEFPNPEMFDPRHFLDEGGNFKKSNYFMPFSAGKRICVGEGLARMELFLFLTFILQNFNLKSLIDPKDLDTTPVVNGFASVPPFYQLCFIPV
Among all 16,000 compounds or so, about 5,800 (36%) were called active. About 23% were inconclusive and are not listed. The list shows a part of the results.
parameterMeasured: AC50

compound	endpointValue
CCOC(=O)CSCC(NC(=O)OC(C)(C)C)C(=O)OCC (stereo unspecified)	10 µM (active)
CN1CCc2c(sc3c2c(=O)n(-c2ccccc2)c2nncn32)C1	inactive
C[C@@H](CN(C)C)CN1c2ccccc2CCc2ccccc21	inactive
Cn1c(=O)n(-c2ccc(Cl)cc2)c(=O)c2c3c(sc21)COC(C)(C)C3	20 µM (active)
O=C1CCCc2ccccc2N1Cc1ccccc1Cl	1 µM (active)
CN(C)c1ncc2nc(-c3cc(F)cc(F)c3)c(=O)n(C[C@H]3CCCO3)c2n1	inactive

---

biological target: Cytochrome P450 2C19 (Homo sapiens) (UniProt P33261); assay: Cytochrome panel assay with activity outcomes; conditions: recombinant CYP, pro-luciferin dealkylation, luminescence, p450-cyp2c19; series mostly up to 57.1 µM
In all, about 16,000 compounds went through this assay and about 5,800 (36%) were called active. Another 23% or so got no clear call; they are omitted. Calls follow the shape of the dose curve; as a rule, active = well fitted curve in the direction sought with a large enough effect; inconclusive = small, poorly fitted or top-dose-only effect, or effect the other way; inactive = no such curve, though single readings can be large or run the other way. The list shows a part of the results.
Outcome codes: active, inactive

smilesText	systemUnderTest	qualitativeLabel
O=C(Oc1ccccc1)N1CCC2(CCCN(c3cccc(-c4ccccc4)c3)C2)CC1	Cytochrome P450 2C19 (Homo sapiens) (UniProt P33261)	inactive
COCC(=O)N1CCC2(CCCN(c3cccc(-c4ccccc4)c3)C2)CC1	Cytochrome P450 2C19 (Homo sapiens) (UniProt P33261)	active
Cc1cccc(NC(=O)CSc2nc(-c3ccccc3)c(C#N)c(=O)[nH]2)c1C	Cytochrome P450 2C19 (Homo sapiens) (UniProt P33261)	active
N#CCCn1c(=O)c(-c2cccs2)nc2cnc(OCc3ccccc3)nc21	Cytochrome P450 2C19 (Homo sapiens) (UniProt P33261)	inactive
COc1cc(NC(=O)c2cc(Cl)ccc2Cl)ccc1-c1cc2ccccc2oc1=O	Cytochrome P450 2C19 (Homo sapiens) (UniProt P33261)	active
O=C(c1ccncc1)N1CCC2(CCN(Cc3ccncc3)CC2)CC1	Cytochrome P450 2C19 (Homo sapiens) (UniProt P33261)	inactive
COCC(=O)N1CCC2(CCCN(C(=O)Nc3ccccc3)C2)CC1	Cytochrome P450 2C19 (Homo sapiens) (UniProt P33261)	inactive
N#CC(C#N)=C(N)/C(C#N)=C/c1ccc(O)cc1	Cytochrome P450 2C19 (Homo sapiens) (UniProt P33261)	inactive
COc1cc(C(=O)NC(=S)Nc2cccc(-c3cc4ccccc4oc3=O)c2)cc(OC)c1OC	Cytochrome P450 2C19 (Homo sapiens) (UniProt P33261)	active
Cn1cc(C(=O)OCC2CCN(CCNS(C)(=O)=O)CC2)c2ccccc21	Cytochrome P450 2C19 (Homo sapiens) (UniProt P33261)	inactive
COc1cc(C(=O)NC(=S)Nc2ccc3oc(=O)ccc3c2)cc(OC)c1OC	Cytochrome P450 2C19 (Homo sapiens) (UniProt P33261)	inactive
CCCCC(=O)Nc1cc(OCC)c(NC(=O)c2ccccc2[N+](=O)[O-])cc1OCC	Cytochrome P450 2C19 (Homo sapiens) (UniProt P33261)	inactive
CCOc1ccc(C(=O)Nc2cccc(-c3cc4ccccc4oc3=O)c2)cc1[N+](=O)[O-]	Cytochrome P450 2C19 (Homo sapiens) (UniProt P33261)	active
Cn1nc(C(F)(F)F)c(/C=N/OCc2c(Cl)cccc2Cl)c1Cl	Cytochrome P450 2C19 (Homo sapiens) (UniProt P33261)	active
CC1CCN(CC(=O)N2c3ccccc3Sc3cc4ccccc4cc32)CC1	Cytochrome P450 2C19 (Homo sapiens) (UniProt P33261)	active
N[C@@H](CO)C(=O)NNCc1ccc(O)c(O)c1O	Cytochrome P450 2C19 (Homo sapiens) (UniProt P33261)	inactive
CC(=O)N1CCC2(CCN(Cc3ccncc3)CC2)CC1	Cytochrome P450 2C19 (Homo sapiens) (UniProt P33261)	inactive
COCC(=O)N1CCC2(CCCN(c3ccncc3)C2)CC1	Cytochrome P450 2C19 (Homo sapiens) (UniProt P33261)	inactive
COCC(=O)N1CCC2(CCN(Cc3ccncc3)CC2)CC1	Cytochrome P450 2C19 (Homo sapiens) (UniProt P33261)	active
